Target: T1, IL-18 binding protein (IL-18BP) (UniProt O95998 31-194)
T1 sequence (looked up): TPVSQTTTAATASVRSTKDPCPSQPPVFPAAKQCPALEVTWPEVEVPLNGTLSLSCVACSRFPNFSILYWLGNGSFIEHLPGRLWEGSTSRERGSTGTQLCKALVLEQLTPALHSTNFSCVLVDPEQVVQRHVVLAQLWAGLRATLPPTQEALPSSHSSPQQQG
Experiment: cell-based or functional assay
Short version: Ratio (-BP/+BP), DF-1000005 at least 1 is yes (1), less is no (0).

1) IL-18 variant G3S, E6G, D54V, S55K, T63S, N91Y, R104T (ligand) YFSKLGSKLSVIRNLNDQVLFIDQGNRPLFEDMTDSDMRDNAPRTIFIISMYKVKQPRGMAVSISVKSEKISTLSSENKIISFKEMNPPDYIKDTKSDIIFFQTSVPGHDNKMQFESSSYEGYFLASEKERDLFKLILKKEDELGDRSIMFTVQNED : yes (1)
2) IL-18 variant G3L, E6Y, D54T, T63S, N91Y, R104Q (ligand) YFLKLYSKLSVIRNLNDQVLFIDQGNRPLFEDMTDSDMRDNAPRTIFIISMYKTSQPRGMAVSISVKSEKISTLSSENKIISFKEMNPPDYIKDTKSDIIFFQQSVPGHDNKMQFESSSYEGYFLASEKERDLFKLILKKEDELGDRSIMFTVQNED : yes (1)
3) IL-18 variant G3T, E6Q, K53G, D54G, S55H, T63A, S65T, N91R, R104Q (ligand) YFTKLQSKLSVIRNLNDQVLFIDQGNRPLFEDMTDSDMRDNAPRTIFIISMYGGHQPRGMAVAITVKSEKISTLSSENKIISFKEMNPPDRIKDTKSDIIFFQQSVPGHDNKMQFESSSYEGYFLASEKERDLFKLILKKEDELGDRSIMFTVQNED : yes (1)
4) IL-18 variant G3P, E6H, N91L (ligand) YFPKLHSKLSVIRNLNDQVLFIDQGNRPLFEDMTDSDMRDNAPRTIFIISMYKDSQPRGMAVTISVKSEKISTLSSENKIISFKEMNPPDLIKDTKSDIIFFQRSVPGHDNKMQFESSSYEGYFLASEKERDLFKLILKKEDELGDRSIMFTVQNED : no (0)
5) IL-18 variant G3P, E6N, D54Y, T63S, N91S, R104Q (ligand) YFPKLNSKLSVIRNLNDQVLFIDQGNRPLFEDMTDSDMRDNAPRTIFIISMYKYSQPRGMAVSISVKSEKISTLSSENKIISFKEMNPPDSIKDTKSDIIFFQQSVPGHDNKMQFESSSYEGYFLASEKERDLFKLILKKEDELGDRSIMFTVQNED : no (0)
